System: K4 kissing-loop RNA reporter
Experiment: apparent KD of K4 kissing-loop reporter; higher = weaker reporter binding
Conditions: Eterna round: R107; input ligand: FMN 200 uM
parameter: apparent KD of K4 kissing-loop reporter (µM)

INSERT INTO assay_data (monomer_sequence, measurement_target, readout_number) VALUES
  ('ACAUGACGUGCGCCCGUCAUGAAACGUGCAAAGGAUAUUCCGUUUUGAAGAAGGUUGCGGUAGUGUAGUGAUGUUGCUCCGCCGU [theeternabot_sameState_KL_FMN_A_11]', 'K4 kissing-loop RNA reporter', 0.512),
  ('AAGCAGUCACUCGACGCCAUCGAAGAUGGGCGAGGACCGGUACGGCCGCCACUCGGAGUGAUGUUCCGAAGACUGCAAAAUAAAA [MatMod 6 - Jieux - Exclusion - Tryptophan A]', 'K4 kissing-loop RNA reporter', 0.356),
  ('AUGCGCGCGGCGGCCGCCACUCGCAUGAGAGUGAUGUUCUCGCCGUGCCCGCAAGGGUGCGGUGUGAGGACCGGGCCGGGCUGCG [#2 Same State - Tryptophan B Attempt #19 (HarryS)]', 'K4 kissing-loop RNA reporter', 0.562),
  ('AGGUACAAAAGUACCGCUAGAUCCACGGAAGGAGCGCGCGAAAGCGCAGGUAGGUCGCCGGGCAGUGAUGUUGCCGGAUCUAGCA [Omei KL Arginine A SS A v7]', 'K4 kissing-loop RNA reporter', 0.134),
  ('CGCGCGCGCGCGCGCGCGCGCGCGCGAAGUGAGGAUAUUUAGGGAGAAAGAAGGCACUAUAAAAUAUAGUGAUGUUAUAUAAGGG [SSFMNA.B]', 'K4 kissing-loop RNA reporter', 0.92);

====

System: K4 kissing-loop RNA reporter;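 further: bound reporter read as fluorescence of individual clusters on recovered sequencing chips by microscopy, with normalized cluster intensities fitted with a binding model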
Experiment: apparent KD of K4 kissing-loop reporter; higher = weaker reporter binding
Details: Eterna round: R107; input ligand: FMN 200 uM
parameter: apparent KD of K4 kissing-loop reporter (nM)

INSERT INTO assay_data (monomer_sequence, readout_number) VALUES
  ('CCAGGAUGAUGAGGAUGAUAAAUUACUGAAGGAGCGCAUAUAGUUGCAGGUAGGUCGCGGUGAAUAAGUAUAGUGAUGUUAUACC [SSArgA.Aa]', 379),
  ('AAGCAGUUCUCAAAGAGUACUGCAGGACAGCAGGAUAUAGUGAUGUUGAGAAGGGCUGUCCCGUCUGCAUGAAACAUGCAGACGA [Simply curious]', 1350),
  ('UGUCUUUUUUUGAUGUUUUUUGUAUAAUGGCAGGAUAUCGUAGAUGCGAGAAGGGCUUUUAUGCGUUAUGAGUGAUGUUUGUAGG [vjjbvmullin]', 329),
  ('UGAUAGGACAGAAGGAGCGGAAGUGAUGUUUCCAAAAGAUAUGAUCGACAAAGUCGAUUUUUCCAGGUAGGUCGCUGUCCUAUCU [KL-XARG-B19]', 60.5),
  ('UUUCGGUUCUGAGGAUAUUCGGACAAAUAUAGUGAUGUUGUAUAAGGAGGAGGGUGUUGGCAGUGCGGAGAAGGCAGACCAGGAU [ExFMNB.W]', 853),
  ('UGACAUUGCUCAGAUACCAGACCUGAGGAACACCCAGGUGCCAAAACGUACUAAAUAAAGGUCCCUUGGCAGCUGAGCAAUGUCU [TheoBX 13]', 45.7),
  ('AGACUACCACACUGUCAAUAGACAGUGAAUUAGGAUAUGCUGAUAAGCAGAAGGAGUGAUGUUCCCAGGUAGUCAAUAAAAUAAU [FmnAX 13 U30+C66]', 169),
  ('UAUAUAGUGACGGCCGCCACUAUUGUGAUGUUAUUGUUAGAGUGAUGUUUUGUUGUUUAAUUUUGUAGGACCGGGUUAUAUGUUA [xxzsmullin]', 846),
  ('UUUUUUUACUGAAGGAGCGGCAAUUGAUACGUAGAUAUAGUGAUGUUAUAUAAGAUAGAGAGCCAGGUAGGUCGCAGAUUUUUUC [ExArgB.X]', 194),
  ('GGCACUACAGCGGCCGCCACUGUUUAGUCCAUCGCUUGCGAGUGAUGUUCGUAGGUACUGCAGCUCAGGACCGGGCUGUCCUUAC [theeternabot_sameState_KL_Trp_B_34]', 475),
  ('AAAUAGAUCAGUCACCCAGUGAUGUUGGAAGGAGCGUGCGAAAGCACAGGUAGGUCGCCAGAAUAAAAGUGGCUGAUCAAAAUAA', 512),
  ('UAAUAAAUUCCAGCGAUAUCGCUCUUCGAAGGAGCGGACGAAAGUCCAGGUAGGUCGCGGAGAGUGAUGUUCUUUGCGGCGCUGG [whbob_Ex_Arginine_A_2t133]', 450),
  ('AAUGUACAGGGAAGGAGCGUAGUCCAGUGAUGUUGGAGUUAAAUACCAGUGAUGUUGGUUAUACAGGUAGGUCGCCCUAAAGUGC [Exclusion Arginine B Gf 4]', 87),
  ('CAAAUAAAUAUAAUUGAUAAGUGAUGUUGGCGAGGACCGGUACGGCCGCCACUCGAUAUCGGUCCAUUAACCGAGUGAUGUUUGG [Default title]', 102),
  ('GGAUCCACCAGUGAUGUUGGAGAAAACUCGAAGGAUAUGACGAAAGUCAGAAGGUCGUAGACUGGACAAAGUCCGGUCGGAUCCA [FmnA 19 G30+C56]', 500),
  ('UCGCCGCUCACGGCCGCCACUAAGCCCAAGACCAGAGAGUGAUGUUCUAUCCACGUUUCAAUUUUUAGGACCGGGUGAAAGGCGA [theeternabot_sameState_KL_Trp_B_14]', 779),
  ('AAUAAUGGAGUGAUGUUCCAGUAAUGGGAUACCAGACAUGAAAAUGUCCCUUGGCAGCUCAAAGGUCUAGUGAUGUUAUAAAGAA [KL-SSTheo-A6]', 475),
  ('GUGCAAAGCACCGGCACGAGCAGCUUAAAGGAGGAUAUGACGAAAGUCAGAAGGUUUAGUGAUGUUAGGCCUUGCUUGAGUCGAA [#01 K4 FMN A Exclusion]', 326),
  ('GCGCGUCAUGUCAGCGGUGACUACGUCGAUACCAGCAGGGAAACCUGCCCUUGGCAGCGACGCGCUGGAGUGAUGUUCCGACAGA [#2 Exclusion - Theophylline A Attempt #5 (HarryS)]', 218),
  ('AGCCAGCGUACAUCACUCUGGCUGCUGGAUACCAGCUCGGAAACGAGCCCUUGGCAGCCAGAACUUGCAGUGAUGUUGCAAGUAA [Design12]', 460),
  ('GGUAGCAUGGCGGCCGCCACUGAGGCCCUAUGCGAGUCCUCUACAACCUAGUGAUGUUAGGCGUCCAGGACCGGGCCAUGCUACC', 95.7),
  ('UGAUACCAGACGGCCGCCACUGCACCAGUCAAUGACUGAGUGCGGUAGUGCUCAGUGAUGUUGAGUAGGACCGGGUCUGGUAUCU [Mod of Eli''s TrypBX 8 v3]', 148),
  ('CCCGCGGCGGGAAACCGUCGCGGGAAGGAAGGAGCGGCGAAGAAGCCAGGUAGGUCGCCUAUUGACAGUGAUGUUGUUAUAUAGA [#11]', 226),
  ('UGACUGGAUGGAAGGAGCGCUAAACUCCUAGUGAUGUUAGGGACAUGAGGCAUAGCCUUGAAGCAGGUAGGUCGCCAUCUAGUCU [FiskerMod 29 - Jieux - Same State - Arginine B]', 193);

====

Tested on: MS2 coat protein
Assay: apparent KD of MS2 coat protein; designed switch direction (-1 OFF switch, 1 ON switch): 1; higher = weaker reporter binding
Details: input ligand: none
Listed here are sequences together with their documented apparent KD of MS2 coat protein.
parameter: apparent KD of MS2 coat protein (nM)

INSERT INTO results (monomer_sequence, parameter, readout_number) VALUES
  ('AACAUGAGGAUCACCCAUGUAGAAAAGUGAGGCAGCUCAGGGAAGGAUAUGGUUGACACCCUCGACCAGAAGGUCCAAAAUAAA [Argeatonra] (Eterna round: R96, puzzle: Same State NG 3)', 'apparent KD of MS2 coat protein', 63.6),
  ('UUAUCUCAGACAUGAGGAUCACCCAUGUGGUUAUGACUUAGACAGGAUAUAGUAGUAUCGAAAUACUAGAAGGGUCAUUUUAUU [JR_SSNG3_Sub021] (Eterna round: R96, puzzle: Same State NG 3)', 'apparent KD of MS2 coat protein', 143),
  ('AGCUAUUACGAAGGAUAUUGUGACAUGAGGAUCACCCAUGUUUACAUGAUUAAUUGUGAUCACGUCGAGAAGGUUGUACUAACA [SameState NG2 #32] (Eterna round: R96, puzzle: Same State NG 2)', 'apparent KD of MS2 coat protein', 30.2);

====

Test system: MS2 coat protein
Experiment: apparent KD of MS2 coat protein; higher = weaker reporter binding
Conditions: Eterna round: R107; input ligand: tryptophan 2.4 mM
parameter: apparent KD of MS2 coat protein (nM)

INSERT INTO measurements (monomer_sequence, measurement_target, parameter, readout_number) VALUES
  ('ACAUGAGGAUCACCCAUGUGCCGUCUUGAUACCAGACCCGAAGUAGUCCCUUGGCAGCAACUACGUGACGGUCGCCCAUGUGUAG [rremullin]', 'MS2 coat protein', 'apparent KD of MS2 coat protein', 14.7),
  ('AUUGCGAGUGAGUCGUGUAACGAUUCAGAUACCAGGCAUUUCGUUGUCCCUUGGCAGCUGUCUUACAUGAGGAUCACCCAUGUUA [#29 Exclusion-TheophyllineA]', 'MS2 coat protein', 'apparent KD of MS2 coat protein', 56.3),
  ('UUUGAUAGGACAGAUACCAGCGUGUUAUAAAACAUGAGGAUCACCCAUGUAGUGAUCAAGCGCCCUUGGCAGCUGGUUUGUUAGG [7.J]', 'MS2 coat protein', 'apparent KD of MS2 coat protein', 207),
  ('CCCUGGGUGGGAAGGAGCGCAUAUUCAACAUGAGGAUCACCCAUGUACAGACGUGAGUCAUUGCAGGUAGGUCGCCCACCCAGGG [SS-ArgB21]', 'MS2 coat protein', 'apparent KD of MS2 coat protein', 15.5),
  ('AGCUCGCAUCCUCAAAGCGUCAAAGACGCACGAGGACCGGUACGGCCGCCACUCGACCUGAGGAUCACCCUGGUCUAAGCGAGCA [TrypAX 9 #SwitchBubble #AlternativeMS2 #MS2Late #CuTurnoff]', 'MS2 coat protein', 'apparent KD of MS2 coat protein', 381),
  ('AGAAAGAAACAAAACUCAAGGAGAACCGAAGGAGCGGCGAAAGAGCCAGGUAGGUCGCGGUCCUCAACAUGAGGAUCACCCAUGU', 'MS2 coat protein', 'apparent KD of MS2 coat protein', 96.6),
  ('CGGUUUGUGAUGGAUACCAGCAGAGAAAAUGUUUAUCCUAACAUGAGGAUCACCCAUGUAUGCCCUUGGCAGCUGUUGUGGGCUG [8.V]', 'MS2 coat protein', 'apparent KD of MS2 coat protein', 52.5),
  ('CACAUGAGGAUCACCCAUGUCUGAACUGAAGGAGCGCUAAACAAGGCAGGUAGGUCGCGGAAUUUUGUGUGCAUAUGCAUAUGGG [9.N]', 'MS2 coat protein', 'apparent KD of MS2 coat protein', 24.8),
  ('AAAGCUACGUAAAAUAAAACUACAUGUGAAGGAGCGCGCGAAAGCGCAGGUAGGUCGCACAUGAGGAUCACCCAUGUCGUAGCAA [MAT - Exclusion Arginine A - Mod of Eli - D5]', 'MS2 coat protein', 'apparent KD of MS2 coat protein', 52.2),
  ('AUCGUACCUGAGGAUACCAGCAUGUGAUCAUAACAUGAGGAUCACCCAUGUAAUCAGUGAUGCCCUUGGCAGCUUGAUCGGUACA [Same State - Theophylline B (Freestyle 11)]', 'MS2 coat protein', 'apparent KD of MS2 coat protein', 63.8),
  ('AAAAGAGGUGGAAGGAGCGGGAGACAUGAGGAUCACCCAUGUGAUGUGACGAAAGGGUCAGCCCAGGUAGGUCGCCAUGUCGAAA [yuyymullin]', 'MS2 coat protein', 'apparent KD of MS2 coat protein', 27.3),
  ('GCGAUGGAGCGAAGGAGCGUGCUAGUACAUGAGGAUCACCCAUGUGAGUCGCAGCGCUAAGCACAGGUAGGUCGCGCUCCAUCGC [EAB NP+V+V2 #12]', 'MS2 coat protein', 'apparent KD of MS2 coat protein', 40.5);

Just for reference, the supplement of paper PMC9170038 is where these values come from.
